Assay: Metabolic stability in neat mouse plasma assessed as parent compound remaining at 400 ug/ml after 3 hrs by RP-HPLC method
Type: ADME, cell-free
Conditions: read-out: Stability
*1 amine or outer side, *2 acyl side, *3 side chain or, on linkers, in order; H or OH if unused. Where a SMILES comes first, the peptide text is derived from it. [ ]: non-standard residue; d: D form. X1 = C=CC(C)(C)n1cc(C[C@@H](N[*:1])C(=O)[*:2])c2ccccc21; dNMeF = CN[C@H](Cc1ccccc1)C(=O)O

{"MOLECULE": "C=CC(C)(C)n1cc(C[C@@H](NC(=O)[C@H](Cc2ccccc2)NC(=O)[C@@H](Cc2c[nH]c3ccccc23)NC(=O)[C@@H](Cc2ccccc2)NC)C(=O)N[C@@H](CC(C)C)C(N)=O)c2ccccc21 (H-[dNMeF][dW]F[X1]L-NH2)", "remaining at 3 h, 400 ug/ml, %": 87.8}

Hey, just so you know, these numbers are from ChEMBL document CHEMBL4138117.
